Procedure summary: Midazolam plasma pharmacokinetics with or without capivasertib (part A)
Condition description: human, plasma, oral, tmax, median (range); day 12 of cycle 1, midazolam 1 mg on 4th day on capivasertib 400 mg BID; N = 15
Quantity: tmax

Query :: Output measured tmax for this item: Cc1ncc2n1-c1ccc(Cl)cc1C(c1ccccc1F)=NC2 [midazolam, reference compound]
Result :: ~30 min

----------
Procedure summary: Midazolam plasma pharmacokinetics with or without capivasertib (part A)
Condition description: human, plasma, oral, AUCinf, geometric mean (gCV%); day 8 of cycle 1, midazolam 1 mg on 3rd day off capivasertib 400 mg BID; N = 16
Quantity: AUC(0-inf)
Answer format: value, then unit.

Query :: Output measured AUC(0-inf) for this item: Cc1ncc2n1-c1ccc(Cl)cc1C(c1ccccc1F)=NC2 [midazolam, reference compound]
Result :: 28.3 ng·h/mL

----------
Procedure summary: Midazolam plasma pharmacokinetics with or without capivasertib (part A)
Condition description: human, plasma, oral, Cmax, geometric mean (gCV%); day 8 of cycle 1, midazolam 1 mg on 3rd day off capivasertib 400 mg BID; N = 16
Quantity: Cmax (ng/mL)
Kindly answer with a numeric value in ng/mL, unit omitted.

Query :: Output measured Cmax for this item: Cc1ncc2n1-c1ccc(Cl)cc1C(c1ccccc1F)=NC2 [midazolam, reference compound]
Result :: 9.9

----------
Procedure summary: Midazolam plasma pharmacokinetics with or without capivasertib (part A)
Condition description: human, plasma, oral, t½λz, geometric mean (gCV%); day 8 of cycle 1, midazolam 1 mg on 3rd day off capivasertib 400 mg BID; N = 16
Quantity: half-life (h)
Kindly answer with a numeric value in h, unit omitted.

Query :: Output measured half-life for this item: Cc1ncc2n1-c1ccc(Cl)cc1C(c1ccccc1F)=NC2 [midazolam, reference compound]
Result :: 8.52

----------
Procedure summary: Midazolam plasma pharmacokinetics with or without capivasertib (part A)
Condition description: human, plasma, po, 1 mg, tmax, median (range); day 1 of cycle 1, midazolam alone, single oral 1 mg; N = 18
Quantity: tmax

Query :: Output measured tmax for this item: Cc1ncc2n1-c1ccc(Cl)cc1C(c1ccccc1F)=NC2 [midazolam, reference compound]
Result :: ~30 min

----------
Procedure summary: Midazolam plasma pharmacokinetics with or without capivasertib (part A)
Condition description: human, plasma, oral, Cmax, geometric mean (gCV%); day 12 of cycle 1, midazolam 1 mg on 4th day on capivasertib 400 mg BID; N = 15
Quantity: Cmax (ng/mL)
Kindly answer with a numeric value in ng/mL, unit omitted.

Query :: Output measured Cmax for this item: Cc1ncc2n1-c1ccc(Cl)cc1C(c1ccccc1F)=NC2 [midazolam, reference compound]
Result :: 9.83

----------
Procedure summary: Midazolam plasma pharmacokinetics with or without capivasertib (part A)
Condition description: human, plasma, po, 1 mg
Quantity: AUC(0-t) (ng·h/mL)
Kindly answer with a numeric value in ng·h/mL, unit omitted.

Query :: Output measured AUC(0-t) for this item: Cc1ncc2n1-c1ccc(Cl)cc1C(c1ccccc1F)=NC2 [midazolam, reference compound]
Result :: 22.4

----------
Procedure summary: Midazolam plasma pharmacokinetics with or without capivasertib (part A)
Condition description: human, plasma, oral, t½λz, geometric mean (gCV%); day 12 of cycle 1, midazolam 1 mg on 4th day on capivasertib 400 mg BID; N = 15
Quantity: half-life
Answer format: value, then unit.

Query :: Output measured half-life for this item: Cc1ncc2n1-c1ccc(Cl)cc1C(c1ccccc1F)=NC2 [midazolam, reference compound]
Result :: 7.23 h
